- Procedure Text: Pharmacokinetics after PO dose in mice
- Format: in vivo, Male C57BL/6 mice
- Measurement Context: male, C57BL/6, mouse, in vivo; 10 mg/kg PO
Measured Metric: Tmax (h)
Answer format: numeric, h implied, no suffix.

Recorded results for 4 molecules are shown here.
Task item: Endpoint output: Tmax of CCCCCCC(C)(C)c1cc(O)c2c(c1)OC(C)(C)[C@@H]1CC=C(C(=O)O)C[C@@H]21 [AJA, reference compound] . Value?
Reply: 1

Task item: Then what about the molecule `CCCCCCC(C)(C)c1cc(O)c2c(c1)OC(C)(C)[C@@H]1CC=C(C(=O)NC[C@H](O)CO)C[C@@H]21` ?
Reply: 1

Task item: Then what about the molecule `CCCCCCC(C)(C)c1cc(O)c2c(c1)OC(C)(C)[C@@H]1CC=C(C(=O)NC[C@@H](O)CO)C[C@@H]21` ?
Reply: 1

Task item: Then what about the molecule `CCCCCCC(C)(C)c1cc(O)c2c(c1)OC(C)(C)[C@@H]1CC=C(C(=O)OC(C)C)C[C@@H]21` ?
Reply: 6

Please turn your attention to the following entry.
Task item: Endpoint output: Tmax of `CCCCCCC(C)(C)c1cc(O)c2c(c1)OC(C)(C)[C@@H]1CC=C(C(=O)NC(C)(C)CCO)C[C@@H]21` . Value?
Reply: 4

Data origin: patent US20210284621A1
